Test system: Plasmodium berghei
METHOD: Antiplasmodial activity against Plasmodium berghei infected in Swiss Webster mouse assessed as mouse survival at 3 mg/kg, po dosed once daily for 4 consecutive days beginning 1 hr after initial infection and measured on day 9 post infection by Giemsa staining method
Format: functional
Reported survival at 3 mg/kg is given for each of the following molecules.

| SMILES_REPR | survival at 3 mg/kg, % |
| --- | --- |
| O=C(O)c1cnc(Oc2ccc3c(c2)B(O)OC3)cn1 | 0 |
| NC(=O)c1cnc(Oc2ccc3c(c2)B(O)OC3)cn1 | 0 |
| O=C(O)c1ccc(Oc2ccc3c(c2)B(O)OC3)cn1 | 0 |
| COC(=O)c1cnc(Oc2ccc3c(c2)B(O)OC3)cn1 | 40 |
